# target_under_test: T1, human PDGF-BB (platelet derived growth factor B homodimer) (human, UniProt P01127)
# T1 construct: Platelet derived growth factor B, human, homodimer, bought from PeproTech; the printed catalogue number may stand for 100-14B; source: bought: PeproTech, Catalog 100-148
# procedure_details: SPR; Biacore T200, off-rate screen; antibody captured (~70 to 100 RU) by anti-human IgG amine-coupled to a CM5 chip; human PDGF-BB injected at a single 2.5 nM for 170 s, dissociation 300 s; HBS-EP+ N (10 mM HEPES, 500 mM NaCl, 3 mM EDTA, 0.05% Tween20, pH 7.4); 25 C
# assay_context: both partners purified

binder	readout_unit	koff
R1-002 (antibody, V domains shown, VL of AB-001 (AB-001_LC); only the variable regions are written; source: HEK293, transient, purified from conditioned medium (protein A, TMAE, HIC)) VH: EVQLLQSGGGLVQPGGSLRLSCAASGFTFSSYAMSWVRQAPGKGLEWVSYISDDGSLKYYADSVKGRFTISRDNSKNTLYLQMNSLRAEDTAVYYCARHPYWYGGQLDLWGQGTLVTVSS VL: SYELTQPPSVSVSPGQTASITCSGDSLGSYFVHWYQQKPGQSPVLVIYDDSNRPSGIPERFSGSNSGNTATLTISGTQAMDEADYYCSAFTHNSDVFGGGTKLTVL	s⁻¹	0.00038
R1-015 (antibody, V domains shown, only the variable regions are written; source: HEK293, transient, purified from conditioned medium (protein A, TMAE, HIC)) VH: EVQLLQSGGGLVKPGGSLRLSCAASGFTFSSYAMSWVRQAPGKGLEWVSYISDDGSLKYYADSVKGRFTISRDNSKNTLYLQMNSLRAEDTAVYYCARHPYWYGGQLDLWGQGTLVTVSS VL: SYELTQPPSVSVSPGQTASITCSGDSLGSYFVHWYQQKPGQSPVLVIYDDSNRPSGIPERFSGSNSGNTATLTISGTQAMDEADYYCSAFTHNSNVFGGGTKLTVL	s⁻¹	0.000752
